Source: ChEMBL document CHEMBL3217710

- assay-name: Drug degradation at 40 degC after 1 month
- Assay type: physicochemical
- recorded-conditions: read-out: Drug degradation
recorded-metric: degraded at 730.5 h (%)

sample_smiles=C[C@H]1[C@@H](O)O[C@@H]2O[C@@]3(C)CC[C@H]4[C@H](C)CC[C@@H]1[C@@]24OO3 recorded_metric="degraded at 730.5 h" value_observed=2

* * *

- assay-name: Therapeutic index, ratio of compound activity in mouse assessed as body weight gain to compound activity against Plasmodium berghei infected in mouse
- Type: organism-based
- recorded-conditions: in vivo, read-out: TI
recorded-metric: selectivity ratio

compound="C[C@H]1[C@@H](CC(C[C@H]2O[C@@H]3O[C@@]4(C)CC[C@H]5[C@H](C)CC[C@@H]([C@H]2C)[C@@]35OO4)C(=O)O)O[C@@H]2O[C@@]3(C)CC[C@H]4[C@H](C)CC[C@@H]1[C@@]24OO3 (stereo partly specified)" value_observed=167
